- target-entity: Endothelin-1 receptor (Homo sapiens, UniProt P25101)
- Sequence (P25101 whole entry): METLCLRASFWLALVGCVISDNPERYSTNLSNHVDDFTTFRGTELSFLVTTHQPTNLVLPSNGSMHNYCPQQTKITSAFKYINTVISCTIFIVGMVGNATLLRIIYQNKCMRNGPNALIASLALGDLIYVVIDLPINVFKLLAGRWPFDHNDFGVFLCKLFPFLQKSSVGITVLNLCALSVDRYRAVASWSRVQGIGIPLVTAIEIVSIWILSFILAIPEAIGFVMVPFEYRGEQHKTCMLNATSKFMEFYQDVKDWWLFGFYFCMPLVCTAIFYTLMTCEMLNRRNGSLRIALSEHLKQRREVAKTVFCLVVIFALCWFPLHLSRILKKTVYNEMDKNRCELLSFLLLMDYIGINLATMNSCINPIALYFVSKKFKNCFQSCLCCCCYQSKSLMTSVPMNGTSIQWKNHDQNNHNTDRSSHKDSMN
- protocol: Inhibitory of human Endothelin A receptor by using I-ET-1 as radioligand in a competitive radioligand assay
parameter: IC50 (µM)
// return numeric value only (unit: µM, not printed)

// worked examples, IC50 included
Item: Cc1noc(NS(=O)(=O)c2sccc2CCc2ccc3c(c2)OCO3)c1Br | IC50: 0.237

Lab note: measured IC50 of Cc1ccc(/C=C/c2sccc2S(=O)(=O)Nc2onc(C)c2Br)c(C)c1 was 0.166

Reported IC50 ( Cc1noc(NS(=O)(=O)c2sccc2/C=C/c2cc3c(cc2CO)OCO3)c1Br ) = 0.079

The reported IC50 of the molecule Cc1noc(NS(=O)(=O)c2sccc2/C=C/c2cc3c(cc2COC2CCOCC2)OCO3)c1Br was 0.073

Summary for this molecule, Cc1cc(C)c(CCc2sccc2S(=O)(=O)Nc2onc(C)c2Br)c(C)c1 : IC50 is 0.046

The molecule listed as Cc1cc(C)c(/C=C/c2sccc2S(=O)(=O)Nc2onc(C)c2Br)c(C)c1 has a reported IC50 of 0.044

// recorded IC50 for Cc1ccc(/C=C/c2ccsc2S(=O)(=O)Nc2onc(C)c2Br)c(C)c1 : 0.18

Reported IC50 for Cc1noc(NS(=O)(=O)c2ccsc2/C=C/c2ccc3c(c2)OCO3)c1Br was 0.141

Measured IC50, Cc1ccc(CCc2ccsc2S(=O)(=O)Nc2onc(C)c2Br)c(C)c1 : 0.102

More entries:
Measured IC50 of Cc1cc(C)c(/C=C/c2ccsc2S(=O)(=O)Nc2onc(C)c2Br)c(C)c1 : 0.053

###

- target-entity: UniProt:P25101
- protocol: Inhibitory of human Endothelin A receptor by using I-ET-1 as radioligand in a competitive radioligand assay
Below, each entry is listed alongside its reported IC50.
# output: numeric value plus its unit

Worked examples, 2 compounds total:
// Cc1cc(C)c(NC(=O)c2sccc2S(=O)(=O)Nc2onc(C)c2Cl)c(C)c1 : IC50 value = 0.63 µM

get_value(item= Cc1ccc(/C=C/c2sccc2S(=O)(=O)Nc2onc(C)c2Br)cc1 , readout=IC50) returns 0.231 µM

Next:
Reported IC50 ( Cc1cc2c(cc1CCc1ccsc1S(=O)(=O)Nc1onc(C)c1Br)OCO2 ) = 0.091 µM

###

- target-entity: UniProtKB P24530
- protocol: Tested for the inhibitory activity of cloned human ETB receptor by using I-ET-1 as radioligand in a competitive radioligand assay
parameter: IC50 (µM)
Quick reminder: number only, in µM, skip the unit.

IC50 for Cc1cc2c(cc1/C=C/c1ccsc1S(=O)(=O)Nc1onc(C)c1Br)OCO2 is 5.37

###

Items are presented alongside their recorded pIC50.
- target-entity: Endothelin receptor type B (Homo sapiens, UniProt P24530)
- Sequence (P24530 whole entry): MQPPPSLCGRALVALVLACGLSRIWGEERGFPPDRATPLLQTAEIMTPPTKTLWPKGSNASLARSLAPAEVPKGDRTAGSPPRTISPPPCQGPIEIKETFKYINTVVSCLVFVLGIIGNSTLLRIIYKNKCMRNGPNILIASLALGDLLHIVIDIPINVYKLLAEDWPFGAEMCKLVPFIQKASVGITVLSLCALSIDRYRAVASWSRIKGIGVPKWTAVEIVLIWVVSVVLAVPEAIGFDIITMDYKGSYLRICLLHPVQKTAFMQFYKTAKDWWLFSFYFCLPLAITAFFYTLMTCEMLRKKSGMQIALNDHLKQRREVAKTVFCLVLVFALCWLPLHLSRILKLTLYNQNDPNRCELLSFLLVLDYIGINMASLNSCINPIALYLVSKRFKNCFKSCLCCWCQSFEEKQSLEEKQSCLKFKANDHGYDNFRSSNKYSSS
- protocol: Inhibition of human Endothelin B receptor using I-ET-1 as radioligand in a competitive radioligand assay
To interpret pIC50, take it as minus log10 of a concentration measured in moles per litre.

Completed entries (count: 5):
Form field pIC50, entry Cc1cc(C)c(CCc2ccsc2S(=O)(=O)Nc2onc(C)c2Br)c(C)c1 : 5.86

pIC50 for Cc1noc(NS(=O)(=O)c2sccc2/C=C/c2cc3c(cc2COC2CCOCC2)OCO3)c1Br is 5.38

Value of pIC50 reported for the compound Cc1cc(C)c(CCc2sccc2S(=O)(=O)Nc2onc(C)c2Br)c(C)c1 is 5.68

# pIC50 (compound: Cc1cc(C)c(/C=C/c2ccsc2S(=O)(=O)Nc2onc(C)c2Br)c(C)c1 ) is 5.76

Given item Cc1noc(NS(=O)(=O)c2ccsc2/C=C/c2ccc3c(c2)OCO3)c1Br , the value recorded as its pIC50 is 5.28

Okay, next one:
Measured pIC50, Cc1ccc(/C=C/c2ccsc2S(=O)(=O)Nc2onc(C)c2Br)cc1 : 5.18
